target: T1, Human EphA2 (Ecto) (Human, UniProt P29317 24-537); assay: FP competition; competitor Compound 18
T1 construct: extracellular domain
T1 sequence (P29317 24-537): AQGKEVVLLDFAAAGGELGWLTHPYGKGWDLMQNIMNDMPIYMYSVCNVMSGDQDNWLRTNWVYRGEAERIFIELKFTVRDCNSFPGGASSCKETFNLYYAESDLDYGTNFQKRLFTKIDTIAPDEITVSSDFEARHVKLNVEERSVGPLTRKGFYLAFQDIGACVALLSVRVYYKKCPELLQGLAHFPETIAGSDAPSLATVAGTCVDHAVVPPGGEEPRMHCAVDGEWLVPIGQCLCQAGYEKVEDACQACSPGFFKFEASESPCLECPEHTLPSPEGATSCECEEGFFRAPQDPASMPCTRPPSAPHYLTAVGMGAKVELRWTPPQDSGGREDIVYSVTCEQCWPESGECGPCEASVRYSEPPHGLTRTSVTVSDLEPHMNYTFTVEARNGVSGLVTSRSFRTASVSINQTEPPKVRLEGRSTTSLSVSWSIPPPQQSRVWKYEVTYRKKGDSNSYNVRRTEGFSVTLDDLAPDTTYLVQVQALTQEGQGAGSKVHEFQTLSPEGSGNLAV
pKi: −log10 of the molar value. Numbered stars: 1 amine (or outer) side, 2 acyl side, 3 side chain; on linkers, the order of the positions; unused ones are H or OH. Bridge positions count the residues as written; N and C are the ends. Square brackets hold non-standard residues; d marks the D form. Ends that are not written are not given here. 1Nal = N[C@@H](Cc1cccc2ccccc12)C(=O)O; TBMB = c1c(C[*:1])cc(C[*:3])cc1C[*:2]; hArg = N=C(N)NCCCC[C@H](N)C(=O)O; Tle = CC(C)(C)[C@H](N)C(=O)O; Aib = CC(C)(N)C(=O)O; βAla = NCCC(=O)O; Sar = CNCC(=O)O
RESULT TYPE: pKi

Solved entries (count: 5):
| BINDER | TEST VALUE |
| --- | --- |
| Ac-[Sar][Sar]H[dD]VPCPWGPFWCPVNRPGC (linker 7-14-21 via TBMB) [Compound 225] | 9.00 |
| [Sar][Sar]A[dA]DVPCPWGPFWCPVNRPGC (linker 8-15-22 via TBMB) [Compound 199] | 8.47 |
| [Sar][Sar]AHAVPCPWGPFWCPVNRPGC (linker 8-15-22 via TBMB) [Compound 205] | 8.74 |
| [Sar][Sar]ACPWGPFWCPVNR[Aib]GC (linker 4-11-18 via TBMB) [Compound 110] | 7.12 |
| [Sar][Sar]ACPWGPFWCPVNRAGC (linker 4-11-18 via TBMB) [Compound 104] | 6.91 |

1: Ac-[Sar][Sar]A[dD]VTCP[1Nal]G[Aib]F[1Nal]CPVNR[Aib]GC (linker 7-14-21 via TBMB) [Compound 181]
2: [Sar][Sar]ACP[1Nal]GPFWCPV[dA]RPGC (linker 4-11-18 via TBMB) [Compound 115]
3: [βAla][Sar][Sar][Sar][Sar][Sar][Sar][Sar][Sar][Sar][Sar]H[dD]VPCPWG[Aib]FWCP[Tle]N[hArg]P[dD]C (linker 16-23-30 via TBMB) [Compound 271]
4: ACPWGPFWCPVNRPGCA (linker 2-9-16 via TBMB) [Compound 69]
query: Please produce an ascending ranking of these binders based on pKi. Please list each label once, in the requested order.
result: 4, 2, 3, 1
